- studySystem: URAT1 (Homo sapiens (Human))
- Sequence (Q96S37 whole entry): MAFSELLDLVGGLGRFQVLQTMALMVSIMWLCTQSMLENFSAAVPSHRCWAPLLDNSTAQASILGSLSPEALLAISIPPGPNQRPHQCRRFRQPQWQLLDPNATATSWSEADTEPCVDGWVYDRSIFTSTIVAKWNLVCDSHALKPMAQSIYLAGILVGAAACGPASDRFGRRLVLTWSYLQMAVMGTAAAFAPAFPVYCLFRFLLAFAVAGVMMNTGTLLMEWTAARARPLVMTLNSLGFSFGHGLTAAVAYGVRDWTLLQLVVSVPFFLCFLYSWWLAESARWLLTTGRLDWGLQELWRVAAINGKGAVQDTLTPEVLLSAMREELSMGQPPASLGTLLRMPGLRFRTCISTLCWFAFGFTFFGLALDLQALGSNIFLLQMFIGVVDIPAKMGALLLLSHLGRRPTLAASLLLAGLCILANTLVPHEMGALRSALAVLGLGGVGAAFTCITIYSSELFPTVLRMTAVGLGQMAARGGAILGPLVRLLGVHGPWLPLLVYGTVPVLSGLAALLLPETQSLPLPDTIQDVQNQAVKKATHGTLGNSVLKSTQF
- assaySummary: Uptake of [14C] uric acid using HEK-URAT1
- Type: cell-based
- conditionsUsed: 2 min; [14C] uric acid uptake into URAT1 stably expressed HEK293 cells, 10 μM test compound, 5 μM uric acid, 2 minutes, 37° C.; uptake without test compound = 100%; read-out: % control (10 μM)
parameterMeasured: remaining activity at 10 µM (%)

Cc1cc(C#N)ccc1-c1c(SC(C)(C)C(=O)O)ccc2cnsc12 [Example 86] : 12.1

P = O=C(O)/C=C/Oc1ccc2ccccc2c1-c1cccnc1 [Example 10]
Q = CC(C)(Oc1ccc2cnsc2c1-c1ccc(C#N)cc1)C(=O)O [Example 26]
R = CC(C)C(Sc1ccc2cnsc2c1-c1ccc(C#N)cc1)C(=O)O (centres unmarked) [Example 70]
Request: Sort the 3 molecules by remaining activity at 10 µM; largest first, smallest last. The response must list the labels following the requested ordering.
Result: P, Q, R
